Hey, just so you know, these numbers are from ChEMBL document CHEMBL1201862.

- System: SF-295
- PROTOCOL_SUMMARY: NCI tumour cell line growth inhibition, 48 h
Activity calls are given as the source filed them. Cut-off read from the data, not from the text of the source: active = GI50 up to about 1.1 µM and inactive = higher.
Labels: active, inactive

COMPOUND	CLASS_LABEL
Cc1cc(C)c2c(=N)c3ccccc3n(CCCCCCn3c4ccccc4c(=N)c4c(C)cc(C)nc43)c2n1	inactive
CN(C)c1ccc(/C=C(\NC(=O)c2ccccc2)C2NC(Cc3c[nH]c4ccccc34)C(=O)O2)cc1 (configuration not stated)	inactive
CCCNC(=S)N/C=C1/C(=O)C=C(C)OC1=O	inactive
N#C/N=C1\NC(Cc2ccccc2)C(=O)N1CCc1c[nH]c2ccccc12 (configuration not stated)	inactive
COc1ccc2c(-c3csc(-c4c[nH]c5ccccc45)n3)c[nH]c2c1	inactive
COc1ccc([C@H](NC(=O)c2ccccc2)[C@@H](O)C(=O)O[C@H]2C[C@@]3(O)C(OC(=O)c4ccccc4)C4[C@](C)(C(=O)[C@H](OC(C)=O)C(=C2C)C3(C)C)[C@@H](O)C[C@H]2OC[C@@]42OC(C)=O)cc1 (some centres not stated)	active
Cc1cc(NS(=O)(=O)c2ccc(NC(NC(=O)C(C(F)(F)F)C(F)(F)F)(C(F)(F)F)C(F)(F)F)cc2)no1	inactive

---

- Test system: DMS-114
- PROTOCOL_SUMMARY: NCI tumour cell line growth inhibition, 48 h
Calls of active or inactive are those of the source. No stated cut-off is given here; in the data, active = GI50 up to about 1.1 µM and inactive = higher.

COMPOUND	GI50
CCC1C(=O)OCc2c1cc1n(c2=O)Cc2ccccc2-1 (stereo not drawn)	> 100 µM (inactive)
O=C(CC1OC(O)C(Cl)=C1Cl)c1cccnc1 (stereo not drawn)	> 41.1 µM (inactive)
COc1ccc2c(c1)CN1CCc3c(cc(OC)c(OC)c3OC)C1C2 (stereo not drawn)	58.5 µM (inactive)
CC(=O)OCCOCNC(=S)N/N=C/c1ccc([N+](=O)[O-])o1	17.1 µM (inactive)
Cc1[nH]c2ccccc2c1C1Cc2ccccc2N1C(=O)C#Cc1ccc([N+](=O)[O-])cc1 (stereo not drawn)	> 100 µM (inactive)
O=C(c1cc2c(C(F)(F)F)onc2c2ccccc12)C(F)(F)F	2.15 µM (inactive)
ClCCNCCNCCCl.ClCCNCCNCCCl.[O-][Cl+3]([O-])([O-])O	23.9 µM (inactive)
COc1ccc(C2=Nc3ccccc3SC(C)C2)cc1 (stereo not drawn)	73.3 µM (inactive)
CCOC(=O)C(C#N)(Cc1c[nH]c2ccccc12)NC(C)=O (stereo not drawn)	> 100 µM (inactive)
CC(=O)c1c(C)[n+]([O-])c2cc(C)c(C)cc2[n+]1[O-]	> 100 µM (inactive)
C/C(=C\C(C)COCc1ccccc1)[C@H](COCc1ccccc1)OCc1ccccc1 (stereo partly drawn)	57.5 µM (inactive)
COc1ccc(OC)c(CCc2cc(OC)c(OC)cc2C)c1	5.65 µM (inactive)
CCCCCCCCCCCC[N+]12CC[N+](C)(CC1)CC2	19.9 µM (inactive)
CN1C(=O)C2C(C1=O)C1(O)c3ccccc3C2(N)c2ccccc21 (stereo not drawn)	> 100 µM (inactive)
CC[C@@H]1NC(C(=O)OC)Cc2c1[nH]c1ccccc21 (stereo partly drawn)	> 100 µM (inactive)
C/C(O)=C1\CC2CN3CCc4c([nH]c5ccccc45)C3CC2CC1=O (stereo not drawn)	46.2 µM (inactive)
Cc1cc(/N=C2\C=C(Nc3cc(C)on3)C(=O)c3ccccc32)no1	25.1 µM (inactive)
COc1ccc(/C=N/NS(=O)(=O)c2ccccc2)cc1	63.1 µM (inactive)
